Tested on: MDR1
method: in vitro
test_context: dog, MDCK-MDR1, pH 7.4, MDCK-MDR1: Papp B-A (10^−6, cm/s)
recorded_endpoint: Papp B→A at 120 min, 5 μM (×10⁻⁶ cm/s)

[[record]]
compound = "CN(c1cnc(-c2cc(F)c(C3=CC(F)NC(F)=C3)cc2O)cn1)[C@H]1C[C@]2(C)CC[C@@](C)(N2)[C@H]1F (single isomer, unassigned) [Compound 63E2]"
recorded_endpoint = "Papp B→A at 120 min, 5 μM"
readout_value = 0.22

[[record]]
compound = "COc1cc(-c2ccc(-c3cnc(N(C)[C@@H]4CC5CC[C@H](N5)[C@@H]4F)cn3)c(O)c2)ccn1 (single isomer, unassigned) [Compound 43E1]"
recorded_endpoint = "Papp B→A at 120 min, 5 μM"
readout_value = 1.31

[[record]]
compound = "CN(c1cnc(-c2cc(F)c(-c3ccn(C)c(=O)c3)cc2O)cn1)[C@@H]1CC2CC[C@H](N2)[C@@H]1F (single isomer, unassigned) [Compound 13E1]"
recorded_endpoint = "Papp B→A at 120 min, 5 μM"
readout_value = 106

[[record]]
compound = "Cc1cc(-c2ccc(-c3cnc(N(C)[C@H]4C[C@@H]5CCC(N5)[C@H]4F)cn3)c(O)c2)cc(=O)[nH]1 (single isomer, unassigned) [Compound 77E2]"
recorded_endpoint = "Papp B→A at 120 min, 5 μM"
readout_value = 14.9

[[record]]
compound = "CN(c1cnc(-c2ccc(-c3cnn(C)c3)cc2O)cn1)[C@@H]1CC2N[C@H](C1)CC2(F)F (single isomer, unassigned) [Compound 10E2]"
recorded_endpoint = "Papp B→A at 120 min, 5 μM"
readout_value = 23.7

